# Method Description: Folding and unfolding kinetics (Chevron plot, stopped-flow CD, GuHCl)
# Type: physicochemical
# Run Parameters: in reference to WT*; positive value = decrease in unfolding activation barrier
Measured ΔΔG‡-N by item
Put down the number, then write its unit next to it.

As a guide, the following entries are already answered.
SYM5/Δ104-106: SYM5 FGF-1 mutant plus Ala103→Gly/ΔGlu104/ΔLys105/ΔAsn106 (protein, UniProt P05230 16-155, looked up, variant L44F L73V V109L L111I C117V A103G del104-106) Fibroblast growth factor 1: FNLPPGNYKKPKLLYCSNGGHFLRILPDGTVDGTRDRSDQHIQFQLSAESVGEVYIKSTETGQYLAMDTDGLVYGSQTPNEECLFLERLEENHYNTYISKKHGWFLGIKKNGSVKRGPRTHYGQKAILFLPLPVSSD; -0.0598 kcal/mol
SYM5/Δ120-122: SYM5 FGF-1 mutant plus Arg119→Gly/ΔGly120/ΔPro121/ΔArg122, SEQ ID NO: 2 (protein, Human FGF-1 mutant SYM5D120-122) FNLPPGNYKKPKLLYCSNGGHFLRILPDGTVDGTRDRSDQHIQFQLSAESVGEVYIKSTETGQYLAMDTDGLVYGSQTPNEECLFLERLEENHYNTYISKKHAEKNWFLGIKKNGSVKGTHYGQKAILFLPLPVSSD; 0.502 kcal/mol

Now examine the next entry.
Which ΔΔG‡-N is reported for this molecule? SYM6/ΔΔ: SYM6 FGF-1 mutant plus both Δ104-106 and Δ120-122 deletion mutations, SEQ ID NO: 1 (protein, Human FGF-1 mutant SYM6DD) FNLPPGNYKKPKLLYCSNGGHFLRILPDGTVDGTRDRSDQHIQFQLSAESVGEVYIKSTETGQYLAIDTDGLVYGSQTPNEECLFLERLEENHYNTYISKKHGWFLGIKKNGSVKGTHYGQKAILFLPLPVSSD
0.602 kcal/mol
